- Assay Setup: Ebola virus entry assay, green fluorescence channel
Results with a measured potency or affinity are listed apart. The source made the active and inactive calls. Calls follow the shape of the full dose curve.
Endpoint Label: outcome

O=C1CN(/N=C/c2ccc([N+](=O)[O-])o2)C(=O)N1 | inactive
Cc1onc(-c2ccccc2)c1C(=O)N[C@@H]1C(=O)N2[C@@H](C(=O)O)C(C)(C)S[C@@H]12 | inactive
O=c1[nH]c(=O)n([C@H]2C[C@H](O)[C@@H](CO)O2)cc1F | inactive
CCn1cc(C(=O)O)c(=O)c2cc(F)c(N3CCNC(C)C3)c(F)c21 (stereo not drawn) | inactive
CC(C)C[C@H]1C(=O)N2CCC[C@H]2[C@]2(O)O[C@](NC(=O)[C@@H]3C=C4c5cccc6[nH]c(Br)c(c56)C[C@H]4N(C)C3)(C(C)C)C(=O)N12 | inactive
CCC(=O)NCCC1CCc2ccc3c(c21)CCO3 (stereo not drawn) | inactive
Cc1noc(NS(=O)(=O)c2ccc(N)cc2)c1C | inactive
CC[C@H]1OC(=O)[C@H](C)[C@@H](O[C@H]2C[C@@](C)(OC)[C@@H](O)[C@H](C)O2)[C@H](C)[C@@H](O[C@@H]2O[C@H](C)C[C@H](N(C)C)[C@@H]2O)[C@](C)(O)C[C@@H](C)CN(C)[C@H](C)[C@@H](O)[C@]1(C)O | inactive

----------
- Assay: Quantitative High-Throughput drug screen in 47 multiple myeloma cell lines against the NCATS MIPE library collection: KMM1_JCRB cell viability assay (AID 1918960); also: nearly all actives have a fitted effect of over 30% in size
- Assay Setup: KMM1 myeloma viability, CellTiter-Glo ATP luminescence, 48 h; series mostly up to 45.8 µM
Inconclusive results are not listed. Calls of active or inactive are those of the source. The call rests on the fitted dose curve; in most records, active means well fitted cell-killing curve with a large enough effect; inconclusive means small, poorly fitted or top-dose-only effect, or effect the other way; inactive means no such curve, though single readings can be large or run the other way.
Labels: active, inactive

O=C(O)CCCc1ccc(N(CCCl)CCCl)cc1 | inactive
C[C@](O)(CS(=O)(=O)c1ccc(F)cc1)C(=O)Nc1ccc(C#N)c(C(F)(F)F)c1 | active
CCC1(c2ccc(N)cc2)CCC(=O)NC1=O (centres undefined) | inactive
COc1cc(OC)c(OC)cc1C=O | inactive

----------
- Assay Setup: Ebola virus entry assay, ratio channel
Active and inactive are the calls of the source. No rule for the calls is given here.
Labels: yes (1) (active), no (0) (inactive)

O=C1c2c(O)cccc2Cc2cccc(O)c21 | no (0)
Nc1ncnc2c1ncn2[C@@H]1O[C@H](CO)[C@@H](O)[C@H]1O | no (0)
Clc1ccc(C(c2ccc(Cl)cc2)C(Cl)(Cl)Cl)cc1 | no (0)
O=C1CN=C(c2ccccc2)c2cc([N+](=O)[O-])ccc2N1 | no (0)
Cc1ccc(Cl)c(Nc2ccccc2C(=O)O)c1Cl | no (0)
S=P(N1CC1)(N1CC1)N1CC1 | no (0)
O=c1c(C2CC(c3ccc(-c4ccc(Br)cc4)cc3)Cc3ccccc32)c(O)sc2ccccc12 (configuration not stated) | no (0)
COC(=O)c1cc(Cl)ccc1OC | no (0)
C[C@@H]1C[C@H]2[C@@H]3C[C@H](F)C4=CC(=O)C=C[C@]4(C)[C@@]3(F)[C@@H](O)C[C@]2(C)[C@@]1(O)C(=O)CO | no (0)
CCOC(=O)c1cnc2c(cnn2CC)c1NN=C(C)C | no (0)
COCCCOc1ccnc(CS(=O)c2nc3ccccc3[nH]2)c1C (configuration not stated) | no (0)
CC(C(=O)O)c1ccc(C(=O)c2ccccc2)s1 (configuration not stated) | no (0)
COc1ccccc1N1CCN(CCCCNC(=O)c2ccc(-c3ccc(C(C)=O)cc3)cc2)CC1 | no (0)
CN1CC[C@]23c4c5ccc(O)c4O[C@H]2[C@@H](O)C=C[C@H]3[C@H]1C5 | no (0)
CCC1(c2ccc(N)cc2)CCC(=O)NC1=O (configuration not stated) | no (0)
C/C(=C(\CCO)SS/C(CCO)=C(\C)N(C=O)Cc1cnc(C)nc1N)N(C=O)Cc1cnc(C)nc1N | no (0)
CC(C)(C)c1cc(C=O)cc(C(C)(C)C)c1O | no (0)
COc1cc(C(=O)N2CCCCCCC2)cc(OC)c1OC | no (0)
COc1cc(-c2ccc(=O)[nH]n2)ccc1OC(F)F | no (0)
Cc1oc(=O)oc1CN1CCN(c2cc3c(cc2F)c(=O)c(C(=O)O)c2n3C(C)S2)CC1 (configuration not stated) | no (0)
COc1cccc(C(=O)CCN[C@@H](C)[C@H](O)c2ccccc2)c1 | no (0)
COc1cc(CC(C)N)cc(OC)c1OC (configuration not stated) | no (0)
COc1cc2c(cc1OC)CN(C(=O)[C@H](C)N[C@@H](CCc1ccccc1)C(=O)O)[C@H](C(=O)O)C2 | no (0)
O=C1NCC2(CCN(CCc3ccccc3)CC2)O1 | no (0)
Cc1ccccc1OCC(O)CO (configuration not stated) | no (0)
O=C(O)c1cc(O)c(O)c(O)c1 | no (0)
CNC(=O)c1c(I)c(NC(C)=O)c(I)c(C(=O)O)c1I | no (0)
CC(=O)N(CC(O)CO)c1c(I)c(C(=O)NCC(O)CO)c(I)c(C(=O)NCC(O)CO)c1I (configuration not stated) | no (0)
CC1CC(OC(=O)c2ccccc2O)CC(C)(C)C1 (configuration not stated) | no (0)
CCCNC(C)C(=O)Nc1ccccc1C (configuration not stated) | no (0)
O=c1[nH]c(=O)n([C@H]2C[C@H](O)[C@@H](CO)O2)cc1Br | no (0)
NCCS(=O)(=O)O | no (0)
CC[C@@]1(O)C(=O)OCc2c1cc1n(c2=O)Cc2c-1nc1ccccc1c2/C=N/OC(C)(C)C | no (0)
C[C@]12CCC(=O)C=C1CC[C@@H]1[C@@H]2CC[C@]2(C)C(=O)CC[C@@H]12 | no (0)
NC(=O)c1cc([N+](=O)[O-])cc([N+](=O)[O-])c1 | no (0)
CNCC(O)c1ccc(O)c(O)c1 (configuration not stated) | no (0)
COP(=S)(OC)Oc1ccc(S(=O)(=O)N(C)C)cc1 | no (0)
COC(=O)[C@@H](N)CCCN/C(N)=N/[N+](=O)[O-] | no (0)
COc1cc(C(=O)OC(COCCC(C)C)CN2CCOCC2)cc(OC)c1OC (configuration not stated) | no (0)
O=C(O)c1cc(-c2ccccc2)nc2ccccc12 | no (0)
NC(=O)N[C@@H](CCC(=O)O)C(=O)O | no (0)
CCN(CC)C(=O)[C@@H]1C=C2c3cccc4[nH]cc(c34)C[C@H]2N(C)C1 | no (0)
COc1cc(C(=O)NS(=O)(=O)c2ccccc2C)ccc1Cc1cn(C)c2ccc(NC(=O)OC3CCCC3)cc12 | no (0)
COc1ccc(Cc2cnc(N)nc2N)cc1OC | no (0)
CC1(C)OC(=O)NC1=O | no (0)
COC(=O)c1ccccc1C(=O)c1ccc(OCCN2CCCCC2)cc1 | yes (1)
CCCCC(CC)COC(=O)c1ccccc1O (configuration not stated) | no (0)

----------
- Test system: CP215
- Assay: qHTS profiling for inhibitors of Plasmodium falciparum proliferation (AID 504749); also: nearly all actives have a fitted effect of over 60% in size
- Assay Setup: P. falciparum in erythrocytes, SYBR Green DNA, 72 h; series mostly up to 28.7 µM
Results filed as inconclusive are left out. Activity calls are given as the source filed them. The call rests on the fitted dose curve; in most records, active means well fitted inhibition curve with a large enough effect; inconclusive means small, poorly fitted or top-dose-only effect; inactive means flat fitted curve, though single readings scatter.
Endpoint Label: outcome

COP(=S)(OC)SCN1C(=O)c2ccccc2C1=O | inactive
NC(=O)CS(=O)C(c1ccccc1)c1ccccc1 (stereo unspecified) | inactive
NC(=O)c1cc([N+](=O)[O-])cc([N+](=O)[O-])c1 | inactive
O=c1oc2ccccc2c(O)c1Cc1c(O)c2ccccc2oc1=O | inactive
C[C@](O)(CS(=O)(=O)c1ccc(F)cc1)C(=O)Nc1ccc(C#N)c(C(F)(F)F)c1 | inactive
O=C(Nc1ccc(Br)cc1)c1cc(Br)cc(Br)c1O | inactive

----------
- Test system: CP297
- Assay: qHTS profiling for inhibitors of Plasmodium falciparum proliferation (AID 504749); also: nearly all actives have a fitted effect of over 60% in size
- Assay Setup: P. falciparum in erythrocytes, SYBR Green DNA, 72 h; series mostly up to 28.7 µM
Results filed as inconclusive are left out. The source made the active and inactive calls. The call rests on the fitted dose curve; in most records, active means well fitted inhibition curve with a large enough effect; inconclusive means small, poorly fitted or top-dose-only effect; inactive means flat fitted curve, though single readings scatter.
Labels: active, inactive

O=C1CN=C(c2ccccc2)c2cc([N+](=O)[O-])ccc2N1 | inactive
CN1C(=O)COc2c(C(=O)NC3CN4CCC3CC4)cc(Cl)cc21 (stereo not given) | inactive
CCC(C)(C)c1ccc(O)cc1 | inactive
Nc1ccc([As](=O)(O)O)cc1 | inactive
CN1C[C@H](C(=O)N[C@]2(C)O[C@@]3(O)[C@@H]4CCCN4C(=O)[C@H](Cc4ccccc4)N3C2=O)C=C2c3cccc4[nH]cc(c34)C[C@H]21 | active
CCC1(c2ccccc2)C(=O)N(COC)C(=O)N(COC)C1=O | inactive
CC(C)NC(C)C | inactive
NC(=O)CS(=O)C(c1ccccc1)c1ccccc1 (stereo not given) | inactive
C[C@](O)(CS(=O)(=O)c1ccc(F)cc1)C(=O)Nc1ccc(C#N)c(C(F)(F)F)c1 | inactive
COc1ccc2c(c1OC)C(=O)O[C@H]2[C@@H]1c2cc3c(cc2CCN1C)OCO3 | inactive
O=c1[nH]oc2c1CCNC2 | inactive
CNC(C)(C)Cc1ccccc1 | inactive
CN1C(=O)C(O)N=C(c2ccccc2)c2cc(Cl)ccc21 (stereo not given) | inactive
COP(=S)(OC)Oc1ccc(SC)c(C)c1 | inactive
O=C1OC(c2ccc(O)c(S(=O)(=O)O)c2)(c2ccc(O)c(S(=O)(=O)O)c2)c2c(Br)c(Br)c(Br)c(Br)c21 | inactive
O=C1c2ccccc2C(=O)c2ccccc21 | inactive
Cc1ncsc1CCCl | inactive
CC(C)=CC1C(C(=O)OCN2C(=O)C3=C(CCCC3)C2=O)C1(C)C (stereo not given) | inactive
COP(=S)(OC)SCN1C(=O)c2ccccc2C1=O | inactive
Nc1ccccc1C(=O)O | inactive

Sourced from PubChem BioAssay (NCATS)
